System: BC3C bladder cancer cell line
test.details: Cell viability assay (CellTiter Glo), BC3C
Format: cell-based
condition.info: BC3C cell growth
measurement.name: IC50
Express the reported value numerically, then name its unit.

Entry `Cn1c(/C=C/C(=O)NO)ccc1/C=C/C(=O)c1cccnc1` : reported IC50 = ?
36.4 µM

Entry `Cn1c(/C=C/C(=O)NO)ccc1/C=C/C(=O)c1cccs1` : reported IC50 = ?
5.85 µM

* * *

System: TNBS colitis
test.details: TNBS colitis in mice
Assay type: in vivo
condition.info: i.c. administration, 50 mg/kg daily for 5 days, day 4, vs vehicle-treated mice, 50 mg/kg
Description: Male C57BL/6J mice 8-10 weeks old were purchased from The Jackson Laboratory (Sacramento, CA, USA). Mice were housed 4 per cage, maintained on a 12:12 hour light-dark cycle and given access to food and water ad libitum. […] Disease severity was assessed by weight loss and measurement of colon length and determination of clinical and histological damage scores on day 4 of the protocol. […]
measurement.name: colon length

Answered cases to consult:
Cn1c(/C=C/C(=O)NO)ccc1/C=C/C(=O)c1ccco1 | ns
Cn1c(/C=C/C(=O)NO)ccc1/C=C/C(=O)c1ccncc1 | ns
Cn1c(/C=C/C(=O)NO)ccc1/C=C/C(=O)c1cccnc1 [MJK006] | ♦♦
Cn1c(/C=C/C(=O)NO)ccc1/C=C/C(=O)c1cccnc1 [MJK009] | ns

With those in mind, consider the next compound.
Entry `Cn1c(/C=C/C(=O)NO)ccc1/C=C/C(=O)c1cccc(Cl)c1` : reported colon length = ?
♦

* * *

test.details: Water solubility of MJK compounds
Type: physicochemical
measurement.name: Solubility score

Cn1c(/C=C/C(=O)NO)ccc1/C=C/C(=O)c1ccncc1 [MJK011] | worst solubility
Cn1c(/C=C/C(=O)NO)ccc1/C=C/C(=O)c1cccnc1 [MJK006] | worst solubility

* * *

System: TNBS colitis
test.details: TNBS colitis in mice
Assay type: in vivo
condition.info: i.c. administration, 50 mg/kg daily for 5 days, day 4, vs vehicle-treated mice, 50 mg/kg
measurement.name: colon length

Answered cases to consult:
COc1cccc(C(=O)/C=C/c2ccc(/C=C/C(=O)NO)n2C)c1 | ♦
Cn1c(/C=C/C(=O)NO)ccc1/C=C/C(=O)c1cccs1 | ns
Cn1cccc1C(=O)/C=C/c1ccc(/C=C/C(=O)NO)n1C | ns
Cn1c(/C=C/C(=O)NO)ccc1/C=C/C(=O)c1ccccn1 | ns

With those in mind, consider the next compound.
Entry `Cn1c(/C=C/C(=O)NO)ccc1/C=C/C(=O)c1cccc(F)c1` : reported colon length = ?
♦♦

Source: patent US11952362B2
